# measuredTarget: T1, RhoB Q63L (UniProt P62745 1-193, limits assumed)
# T1 construct: also called RhoB Q63L (2SHA); constitutively active RhoB mutant
# T1 sequence (P62745 1-193 Q63L limits assumed): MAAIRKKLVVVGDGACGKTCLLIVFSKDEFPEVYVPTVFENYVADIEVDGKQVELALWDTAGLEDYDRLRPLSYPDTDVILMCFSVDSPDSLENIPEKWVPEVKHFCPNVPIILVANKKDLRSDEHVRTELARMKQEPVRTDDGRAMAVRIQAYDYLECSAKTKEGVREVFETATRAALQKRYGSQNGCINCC
# assaySummary: binding kinetics, method not stated (Table 1)
quantity: kon (M⁻¹ s⁻¹)

H12 hs2dAb (VHH, Humanized synthetic single domain antibody; Soluble form was used in ELISA and immunofluorescence and detected through a myc tag; also called clone H12; H12 antibody) VHH: VQLQASGGGFVQPGGSLRLSCAASGDGSRIYAMGWFRQAPGKEREFVSAISWEQDWEHYYADSVKGRFTISRDNSKNTVYLQMNSLRAEDTATYYCAAFMTPHRNLTSMYWGQGTQVTVSS	224000

(A) 5SNP48 hs2dAb (VHH) VHH: VQLQASGGGFVQPGGSLRLSCAASGTSWFTEVMGWFRQAPGKEREFVSAISGLHDVGTYYADSVKGRFTISRDNSKNTVYLQMNSLRAEDTATYYCAALDKWYTKAMDARKDYWGQGTQVTVSS
(B) 4SNP61 hs2dAb (VHH) VHH: VQLQASGGGFVQPGGSLRLSCAASGFTSTSTVMGWFRQAPGKEREFVSAISSAHTMDTYYADSVKGRFTISRDNSKNTVYLQMNSLRAEDTATYYCAPAPMLGQMITQPALPYWGQGTQVTVSS
(C) 5SNP65 hs2dAb (VHH) VHH: VQLQASGGGFVQPGGSLRLSCAASGATYEGEAMGWFRQAPGKEREFVSAISSYPSVISYYADSVKGRFTISRDNSKNTVYLQMNSLRAEDTATYYCAYWVNHEGTIREIYWGQGTQVTVSS
Put the binders in ascending order of kon. Could you list the labels in the order requested? C, A, B
(C: 253000 M⁻¹ s⁻¹, A: 462000 M⁻¹ s⁻¹, B: 722000 M⁻¹ s⁻¹)
